meta.source: patent US11820766B2

Quick reference for IC50 among some molecules
molecular target: human MGL from HeLa cells (Homo sapiens, UniProt Q99685); construct: combining endogenously expressed MGL from HeLa cells with test compounds; endogenous in cells; host or cells: HeLa cells / cell homogenates; experiment: In vitro MGL activity assay: [glycerol-1,3-3H]-oleyl glycerol cleavage by MGL from HeLa cells; type: biochemical; conditions: 300 nM [Glycerol-1,3-3H]-oleyl glycerol, one hour incubation
Sequence (Q99685 whole entry): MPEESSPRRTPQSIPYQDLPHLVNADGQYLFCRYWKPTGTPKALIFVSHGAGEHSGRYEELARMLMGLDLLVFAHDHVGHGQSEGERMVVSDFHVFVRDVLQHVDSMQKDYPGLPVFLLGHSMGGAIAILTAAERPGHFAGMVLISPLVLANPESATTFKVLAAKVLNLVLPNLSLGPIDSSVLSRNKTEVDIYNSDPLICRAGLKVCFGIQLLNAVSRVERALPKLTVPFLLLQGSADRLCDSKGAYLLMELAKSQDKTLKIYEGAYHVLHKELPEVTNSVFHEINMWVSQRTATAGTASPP
Dear colleague, please send the value followed by its unit.

See these solved cases before continuing.
INSERT INTO results (smiles_entry, endpoint_value) VALUES
  ('Cc1ccc(C(=O)N2CCc3c(nn(C)c3-c3cc(F)c(F)c(F)c3)[C@@H]2C)cc1-n1cnnc1', '1660 nM'),
  ('Cc1cc(C(=O)N2CCc3c(nn(C)c3-c3cc(F)c(F)c(F)c3)[C@@H]2C)cc(-n2cnnc2)c1', '63 nM'),
  ('Cn1nc2c(c1-c1ccccc1)CCN(C(=O)c1cncc3ccccc13)C2', '39.8 nM'),
  ('C[C@H]1c2nn(C)c(-c3cc(F)cc(F)c3)c2CCN1C(=O)c1ccccc1OCCF', '240 nM'),
  ('C[C@H]1c2nn(C)c(-c3cccc(Cl)c3)c2CCN1C(=O)c1cccc2c1OCO2', '45.1 nM');

Query: Missing value: IC50, human MGL from HeLa cells (Homo sapiens, UniProt Q99685), entry Cn1nc2c(c1-c1ccccc1)CCN(C(=O)c1cccc3[nH]c(C(F)(F)F)nc13)C2 . Fill in?
Result: 2320 nM

Query: Missing value: IC50, human MGL from HeLa cells (Homo sapiens, UniProt Q99685), entry COc1c(Cl)cccc1C(=O)N1CCc2c(nn(C)c2-c2ccccc2)C1 . Fill in?
Result: 2590 nM

Query: Missing value: IC50, human MGL from HeLa cells (Homo sapiens, UniProt Q99685), entry C[C@H]1c2nn(C)c(-c3cc(F)cc(F)c3)c2CCN1C(=O)c1cnc2ccoc2c1 . Fill in?
Result: 15.4 nM

Query: Missing value: IC50, human MGL from HeLa cells (Homo sapiens, UniProt Q99685), entry Cc1ccc(-c2c3c(nn2C)CN(C(=O)c2noc4ccccc24)CC3)s1 . Fill in?
Result: 158 nM

Query: Missing value: IC50, human MGL from HeLa cells (Homo sapiens, UniProt Q99685), entry Cn1nc2c(c1-c1ccccc1)CCN(C(=O)c1ccccc1-n1cncn1)C2 . Fill in?
Result: 671 nM

Query: Missing value: IC50, human MGL from HeLa cells (Homo sapiens, UniProt Q99685), entry Cn1nc2c(c1-c1ccccc1)CCN(C(=O)c1ccc3ncccc3c1)C2 . Fill in?
Result: 227 nM

Query: Missing value: IC50, human MGL from HeLa cells (Homo sapiens, UniProt Q99685), entry Cn1nc2c(c1-c1ccccc1)CCN(C(=O)c1cccc(OC(F)F)n1)C2 . Fill in?
Result: 2560 nM

Query: Missing value: IC50, human MGL from HeLa cells (Homo sapiens, UniProt Q99685), entry Cn1nc2c(c1-c1ccccc1)CCN(C(=O)c1ccc3ncoc3c1)C2 . Fill in?
Result: 293 nM

Query: Missing value: IC50, human MGL from HeLa cells (Homo sapiens, UniProt Q99685), entry C[C@H]1c2nn(C)c(-c3cccc(Cl)c3)c2CCN1C(=O)c1ccc2ncccc2n1 . Fill in?
Result: 46.2 nM

Query: Missing value: IC50, human MGL from HeLa cells (Homo sapiens, UniProt Q99685), entry C[C@H]1c2nn(C)c(-c3cc(F)c(F)c(F)c3)c2CCN1C(=O)c1cccc(-n2cc(F)cn2)c1 . Fill in?
Result: 67.3 nM

Query: Missing value: IC50, human MGL from HeLa cells (Homo sapiens, UniProt Q99685), entry Cn1nc2c(c1-c1ccccc1)CCN(C(=O)c1cnc3ccccn13)C2 . Fill in?
Result: 1320 nM

Query: Missing value: IC50, human MGL from HeLa cells (Homo sapiens, UniProt Q99685), entry COc1ccc(-c2c3c(nn2C)[C@H](C)N(C(=O)c2ccc4nccnc4c2)CC3)cc1Cl . Fill in?
Result: 105 nM
